tested on: phospho-akt (Thr308) in PC-3 cells; experiment: Inhibition of phospho-akt (Thr308) in PC-3 cells, MSD phospho-akt 308 ELISA kit; assay type: cell-based; conditions: Homo sapiens; inhibition of P308 Akt in PC-3 cells using MSD, 2 hours, no serum; read-out: EC50
Collected EC50 values appear next to each entry.

Guide cases for EC50, answers given:
N#Cc1cnc(NCc2ccc(-c3ccc(N)nc3)cc2)c(C(=O)NCc2ccc(F)c(F)c2)n1 | 1000 to 10000 nM
CNCCCc1nc(-c2ccc(CNc3ncc(C#N)cc3C(=O)N[C@@H](C)c3ccc(F)cc3)cc2)cnc1N | < 1000 nM
C[C@H](NC(=O)c1nc(C(F)(F)F)cnc1N[C@H](C)c1ccc(-c2cnc3[nH]nc(N)c3c2)cc1)c1ccc(F)c(F)c1 | 1000 to 10000 nM
C[C@H](NC(=O)c1cc(C#N)cnc1NCc1ccc(-c2cnc(N)cn2)c(F)c1)c1ccc(F)cc1 | 1000 to 10000 nM
Cc1nc(N)cnc1-c1ccc(CNc2ncc(C#N)cc2C(=O)N[C@@H](C)c2ccc(F)cc2)cc1 | > 10000 nM

Lookup: If you can, please state the reported EC50 value of N#Cc1cnc(NCc2ccc(-c3ccc(N)nc3)cc2)c(C(=O)NCc2ccc(F)c(F)c2)c1 .
Found: < 1000 nM

Lookup: If you can, please state the reported EC50 value of C[C@H](NC(=O)c1nc(C#N)cnc1NCc1ccc(-c2cnc(N)c(C(=O)N3CCNCC3)n2)cc1)c1ccc(F)c(F)c1 .
Found: 1000 to 10000 nM

Lookup: If you can, please state the reported EC50 value of O=C(NCc1ccc(F)c(F)c1)c1cccnc1NCc1cc(-c2c[nH]c3ncc(-c4ccn[nH]4)cc23)ccn1 .
Found: < 1000 nM

Lookup: If you can, please state the reported EC50 value of N#Cc1cnc(NCc2ccc(-c3cnc4[nH]c(=O)[nH]c4c3)cc2)c(C(=O)NCc2ccc(F)cc2)c1 .
Found: < 1000 nM

Lookup: If you can, please state the reported EC50 value of C[C@H](NC(=O)c1cc(C#N)cnc1NCc1ccc(-c2cnc(N)c(CCCCN3CCOCC3)n2)cc1)c1ccc(F)cc1 .
Found: < 1000 nM

Lookup: If you can, please state the reported EC50 value of C[C@H](NC(=O)c1cc(C#N)cnc1NCc1ccc(-c2cnc3[nH]nc(CCCN(C)C)c3c2)cc1)c1ccc(F)cc1 .
Found: < 1000 nM

----------
tested on: phospho-akt (Thr308) in PC-3 cells; assay: Inhibition of phospho-akt (Thr308) in PC-3 cells, MSD phospho-akt 308 ELISA kit; type: cell-based; details: inhibition of P308 Akt in PC-3 cells using MSD, 2 hours, no serum; read-out: EC50
OBSERVABLE: EC50

C[C@H](NC(=O)c1cc(C#N)cnc1NCc1ccc(-c2nc3c(N)ncnc3[nH]2)cc1)c1ccc(F)cc1 | > 10000 nM
C[C@H](NC(=O)c1cc(C#N)cnc1NCc1ccc(-c2c[nH]c3ncnc(N)c23)c(F)c1)c1ccc(F)cc1 | 1000 to 10000 nM
C[C@H](NC(=O)c1cc(C#N)cnc1NCc1ccc(-c2cnc(N)c(C(=O)NCCCO)n2)cc1)c1ccc(F)cc1 | < 1000 nM

Lookup: If you can, please state the reported EC50 value of C[C@H](NC(=O)c1cc(C#N)cnc1NCc1ccc(-c2cnc(N)c(C(=O)NCC(O)CO)n2)cc1)c1ccc(F)cc1 (stereo partly shown) .
Found: < 1000 nM
